- test_system: T1, Human CD47-C33G (human, UniProt Q08722 19-135)
- T1 construct: also called CD47 mutein with C33G mutation
- T1 sequence (Q08722 19-135 C33G limits assumed): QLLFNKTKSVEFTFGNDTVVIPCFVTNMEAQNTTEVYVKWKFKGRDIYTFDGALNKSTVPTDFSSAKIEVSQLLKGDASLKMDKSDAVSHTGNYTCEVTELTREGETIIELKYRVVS
- measurement_notes: SPR, IgG captured, CD47 in flow; exp 2;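 also: rates derived from association and dissociation curves, KD estimated from them, C33G mutein used to avoid CD47 IgV homodimers for true monovalent affinity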
measured_endpoint: pKd
pKd field: float, defined as -log10 of concentration (mol/L).

Consider the reported pKd for these binders:
Query block: Entry under review: 108VH10.Ma / 108VL10.M1 (antibody, V domains shown, 4D5-framework series; constant regions not restated for this series; also called VH10.Ma VL10.M1) VH: EVQLVESGGGLVQPGGSLRLSCAASGFTFSHHWIHWVRQAPGKGLEWVAMIDPSDSETRLSQKFKDRFTISADTSKNTAYLQMNSLRAEDTAVYYCSRLGRYYFDYWGQGTLVTVSS VL: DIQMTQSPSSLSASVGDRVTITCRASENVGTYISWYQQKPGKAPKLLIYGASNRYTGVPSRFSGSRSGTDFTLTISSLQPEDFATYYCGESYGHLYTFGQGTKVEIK . Reported pKd?
Result block: 7.24

Query block: Entry under review: 108VH10 / 108VL10.M1 (antibody, V domains shown, 4D5-framework series; also called VH10 VL10.M1; straight-graft antibody) VH: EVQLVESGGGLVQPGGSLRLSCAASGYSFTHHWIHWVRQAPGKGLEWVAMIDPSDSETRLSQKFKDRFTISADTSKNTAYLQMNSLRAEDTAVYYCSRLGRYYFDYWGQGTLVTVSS VL: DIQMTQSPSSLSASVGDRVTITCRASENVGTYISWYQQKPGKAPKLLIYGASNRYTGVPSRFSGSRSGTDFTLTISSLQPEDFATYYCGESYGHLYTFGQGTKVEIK . Reported pKd?
Result block: 7.37

Query block: Entry under review: chimeric antibody 108C10A6 (antibody, V domains shown, Chimeric antibody with mouse variable domains; captured through human Fc; also called VH / VL) VH: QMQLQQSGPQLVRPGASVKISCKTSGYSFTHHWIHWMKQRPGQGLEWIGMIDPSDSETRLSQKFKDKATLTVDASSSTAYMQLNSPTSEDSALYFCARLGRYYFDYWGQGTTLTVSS VL: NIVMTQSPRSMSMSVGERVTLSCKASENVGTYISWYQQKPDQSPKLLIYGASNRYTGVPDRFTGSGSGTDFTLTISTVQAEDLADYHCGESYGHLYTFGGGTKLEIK . Reported pKd?
Result block: 8.89

New cases:
Query block: Entry under review: 108VH4.M4-VL1.M1 (antibody, V domains shown, also called original humanized 108C10A6 antibody) VH: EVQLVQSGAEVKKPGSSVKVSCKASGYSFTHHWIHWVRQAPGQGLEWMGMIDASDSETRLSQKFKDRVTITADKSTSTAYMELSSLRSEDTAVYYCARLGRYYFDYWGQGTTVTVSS VL: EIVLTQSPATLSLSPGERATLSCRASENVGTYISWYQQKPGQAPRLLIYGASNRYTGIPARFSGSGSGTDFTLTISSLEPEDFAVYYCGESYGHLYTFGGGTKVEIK . Reported pKd?
Result block: 8.59

Data credit: patent US20260132197A1
